assay: The drug is tested on Bifidobacterium longum subsp. Infantis strain: CCUG52486 for biotransformation. The drug concentrations were measured before and after a 12-h incubation by liquid-chromatography-coupled mass spectrometry (LC–MS); conditions: 2 µM
Experimental endpoint: Bacterial Biotransformation

[[record]]
compound = "CCCCCNC(=N)N/N=C/c1c[nH]c2ccc(OC)cc12.O=C(O)/C=C\\C(=O)O [TEGASEROD MALEATE]"
experimental_endpoint = "Bacterial Biotransformation"
value_reported = "Compound NOT metabolized"

[[record]]
compound = "CCC1(c2ccc(N)cc2)CCC(=O)NC1=O (stereo not drawn) [AMINOGLUTETHIMIDE]"
experimental_endpoint = "Bacterial Biotransformation"
value_reported = "Compound NOT metabolized"

[[record]]
compound = "CN1CCC(=C2c3ccccc3CC(=O)c3sccc32)CC1.O=C(O)/C=C/C(=O)O [KETOTIFEN FUMARATE]"
experimental_endpoint = "Bacterial Biotransformation"
value_reported = "Compound NOT metabolized"

[[record]]
compound = "CCC(=O)NCC[C@@H]1CCc2ccc3c(c21)CCO3"
experimental_endpoint = "Bacterial Biotransformation"
value_reported = "Compound NOT metabolized"

[[record]]
compound = "CN(C(=O)CN(CCO)CC(=O)N(C)C(C)(C)Cc1ccccc1)C(C)(C)Cc1ccccc1"
experimental_endpoint = "Bacterial Biotransformation"
value_reported = "Compound NOT metabolized"


In the following, a different compound is considered.
Per the record, COC(=O)Nc1nc2ccc(C(=O)c3ccccc3)cc2[nH]1 has Bacterial Biotransformation of Compound NOT metabolized

---

conditions: bacteroides fragilis, 12 h, 2 µM
Description: The drug is tested on Bacteroides fragilis strain: NCTC 9343 for biotransformation. The drug concentrations were measured before and after a 12-h incubation by liquid-chromatography-coupled mass spectrometry (LC–MS)
Experimental endpoint: Bacterial Biotransformation

Use the examples below as a reference point.
[[record]]
compound = "CCN1CCCC1CNC(=O)c1cc(S(=O)(=O)CC)c(N)cc1OC (stereo unspecified) [AMISULPRIDE]"
value_reported = "Compound NOT metabolized"

[[record]]
compound = "CC1Cc2ccccc2N1NC(=O)c1ccc(Cl)c(S(N)(=O)=O)c1 (stereo unspecified) [INDAPAMIDE]"
value_reported = "Compound NOT metabolized"

[[record]]
compound = "CCN(CC)CCCC(C)Nc1c2ccc(Cl)cc2nc2ccc(OC)cc12 (stereo unspecified) [QUINACRINE]"
value_reported = "Compound NOT metabolized"

[[record]]
compound = "CC1OC(OC2C(O)CC(OC3C(O)CC(OC4CCC5(C)C(CCC6C5CCC5(C)C(C7=CC(=O)OC7)CCC65O)C4)OC3C)OC2C)CC(O)C1O (stereo unspecified)"
value_reported = "Compound NOT metabolized"

[[record]]
compound = "Cc1ccccc1N1C(=O)c2cc(S(N)(=O)=O)c(Cl)cc2NC1C (stereo unspecified) [METOLAZONE]"
value_reported = "Compound NOT metabolized"


Per the record, N[C@@H](Cc1ccc(N(CCCl)CCCl)cc1)C(=O)O has Bacterial Biotransformation of Compound metabolized

Per the record, CCC(COC(=O)c1cc(OC)c(OC)c(OC)c1)(c1ccccc1)N(C)C.O=C(O)/C=C\C(=O)O (stereo unspecified) has Bacterial Biotransformation of Compound metabolized

Per the record, CC(C)C[C@H]1C(=O)N2CCC[C@H]2[C@]2(O)O[C@](NC(=O)[C@@H]3C=C4c5cccc6[nH]c(Br)c(c56)C[C@H]4N(C)C3)(C(C)C)C(=O)N12.CS(=O)(=O)O [BROMOCRIPTINE MESYLATE] has Bacterial Biotransformation of Compound metabolized

Per the record, COc1ccc(C(CN(C)C)C2(O)CCCCC2)cc1 (stereo unspecified) [VENLAFAXINE] has Bacterial Biotransformation of Compound NOT metabolized

Per the record, CC(C)NCC(O)COc1ccc(COCCOC(C)C)cc1.CC(C)NCC(O)COc1ccc(COCCOC(C)C)cc1.O=C(O)/C=C/C(=O)O (stereo unspecified) [BISOPROLOL FUMARATE] has Bacterial Biotransformation of Compound NOT metabolized

Per the record, CC(C)c1nc(N(C)S(C)(=O)=O)nc(-c2ccc(F)cc2)c1/C=C/[C@@H](O)C[C@@H](O)CC(=O)[O-].CC(C)c1nc(N(C)S(C)(=O)=O)nc(-c2ccc(F)cc2)c1/C=C/[C@@H](O)C[C@@H](O)CC(=O)[O-].[Ca+2] [ROSUVASTATIN CALCIUM] has Bacterial Biotransformation of Compound NOT metabolized

---

test: The drug is tested on Clostridium sp. strain: fecal isolate for biotransformation. The drug concentrations were measured before and after a 12-h incubation by liquid-chromatography-coupled mass spectrometry (LC–MS); conditions: 2 µM
Experimental endpoint: Bacterial Biotransformation

[[record]]
molecule = "Cc1ccc(-c2nc3ccc(C)cn3c2CC(=O)N(C)C)cc1 [ZOLPIDEM]"
experimental_endpoint = "Bacterial Biotransformation"
value_reported = "Compound NOT metabolized"

[[record]]
molecule = "CCN(CC)CCNC(=O)c1ccc(NC(C)=O)cc1 [ACECAINIDE]"
experimental_endpoint = "Bacterial Biotransformation"
value_reported = "Compound NOT metabolized"

[[record]]
molecule = "Cc1cc(C)cc(OCC2CNC(=O)O2)c1 (centres undefined) [METAXALONE]"
experimental_endpoint = "Bacterial Biotransformation"
value_reported = "Compound metabolized"

[[record]]
molecule = "CN1CCC[C@@H]1CCO[C@](C)(c1ccccc1)c1ccc(Cl)cc1.O=C(O)/C=C/C(=O)O [CLEMASTINE FUMARATE]"
experimental_endpoint = "Bacterial Biotransformation"
value_reported = "Compound metabolized"

[[record]]
molecule = "CC(C)(C#N)c1cc(Cn2cncn2)cc(C(C)(C)C#N)c1 [ANASTROZOLE]"
experimental_endpoint = "Bacterial Biotransformation"
value_reported = "Compound metabolized"

[[record]]
molecule = "CC(O)(CS(=O)(=O)c1ccc(F)cc1)C(=O)Nc1ccc(C#N)c(C(F)(F)F)c1 (centres undefined) [BICALUTAMIDE]"
experimental_endpoint = "Bacterial Biotransformation"
value_reported = "Compound NOT metabolized"


Per the record, COc1ccnc(C[S+]([O-])c2nc3ccc(OC(F)F)cc3[nH]2)c1OC (centres undefined) [PANTOPRAZOLE] has Bacterial Biotransformation of Compound metabolized

Per the record, CN1CC(=O)N2[C@H](c3ccc4c(c3)OCO4)c3[nH]c4ccccc4c3C[C@@H]2C1=O has Bacterial Biotransformation of Compound NOT metabolized

Per the record, COc1ccc2c(c1)c(CC(=O)O)c(C)n2C(=O)c1ccc(Cl)cc1 [INDOMETHACIN] has Bacterial Biotransformation of Compound NOT metabolized

---

test: The drug is tested on Proteus penneri strain: ATCC35198 for biotransformation. The drug concentrations were measured before and after a 12-h incubation by liquid-chromatography-coupled mass spectrometry (LC–MS); settings: 2 µM
Experimental endpoint: Bacterial Biotransformation

[[record]]
compound = "CN1[C@@H]2CC[C@H]1C[C@@H](OC(=O)C(CO)c1ccccc1)C2 (stereo partly drawn) [ATROPINE]"
value_reported = "Compound NOT metabolized"

[[record]]
compound = "CN/C(=N/CCSCc1nc[nH]c1C)NC#N [CIMETIDINE]"
value_reported = "Compound NOT metabolized"

[[record]]
compound = "CN1CCN(C2=Nc3cc(Cl)ccc3Nc3ccccc32)CC1 [CLOZAPINE]"
value_reported = "Compound NOT metabolized"


---

assay: The drug is tested on Bacteroides uniformis strain: ATCC8492 for biotransformation. The drug concentrations were measured before and after a 12-h incubation by liquid-chromatography-coupled mass spectrometry (LC–MS); details: 2 µM
Experimental endpoint: Bacterial Biotransformation

Use the examples below as a reference point.
[[record]]
molecule = "CN(C)CCC=C1c2ccccc2COc2ccccc21 [DOXEPIN]"
value_reported = "Compound NOT metabolized"

[[record]]
molecule = "COc1cc2nc(N3CCN(C(=O)C4CCCO4)CC3)nc(N)c2cc1OC (stereo not given)"
value_reported = "Compound NOT metabolized"

[[record]]
molecule = "CCOc1ccccc1OCCN[C@H](C)Cc1ccc(OC)c(S(N)(=O)=O)c1.Cl [TAMSULOSIN HYDROCHLORIDE]"
value_reported = "Compound NOT metabolized"

[[record]]
molecule = "Cc1cc2c(cc1S(N)(=O)=O)S(=O)(=O)CCC2"
value_reported = "Compound NOT metabolized"

[[record]]
molecule = "CCN(C(C)=O)c1cccc(-c2ccnc3c(C#N)cnn23)c1"
value_reported = "Compound metabolized"

[[record]]
molecule = "CCOc1ccc2nc(S(N)(=O)=O)sc2c1 [ETHOXZOLAMIDE]"
value_reported = "Compound metabolized"


Per the record, O=C(NCc1ccccc1)OCCO [BURAMATE] has Bacterial Biotransformation of Compound NOT metabolized

Per the record, COc1cc(NC(C)CCCN)c2ncccc2c1.O=P(O)(O)O.O=P(O)(O)O (stereo not given) [PRIMAQUINE PHOSPHATE] has Bacterial Biotransformation of Compound metabolized

Per the record, Nc1c2c(nc3ccccc13)CCCC2 has Bacterial Biotransformation of Compound NOT metabolized

Per the record, C#C[C@]1(O)CC[C@H]2[C@@H]3CCC4=CC(=O)CC[C@@H]4[C@H]3CC[C@@]21CC has Bacterial Biotransformation of Compound metabolized

The measurements presented in this section are drawn from ChEMBL document CHEMBL5303573.
